Hello, the source for this data is paper PMC12495443, in case you need it.

Target: human RGS14 RGS-box (wild-type) (Homo sapiens, UniProt O43566)
Construct: human RGS14 RGS-box (aa 46–195 of UniProt O43566); host or cells: E. coli
Test: Transcreener GDP RGScreen fluorescence polarization assay of RGS14 RGS-box GAP activity on Gαi1(DM)
Type: biochemical
Conditions: wild-type RGS14 RGS-box GAP activity, Gαi1(DM), Transcreener GDP RGScreen; read-out: RGS14 pIC50 (converted)
property: IC50

The examples below pair each entry with its known result.
[Q] Fill in the recorded IC50 for this compound, with human RGS14 RGS-box (wild-type) (Homo sapiens, UniProt O43566) as test system: c1ccc2c(c1)OC[C@@H](c1nnc3n1N=C(c1ccc4c(c1)OCCO4)CS3)O2 [Z55660304]
[A] 28.8 µM

[Q] Lab request: please report IC50 under test system human RGS14 RGS-box (wild-type) (Homo sapiens, UniProt O43566) for COc1ccc2nc(SC(C)C(=O)c3[nH]c(C)c(C(C)=O)c3C)[nH]c2c1 (stereo not drawn) [Z98717471]
[A] > 1000 µM

[Q] Return IC50 measured with human RGS14 RGS-box (wild-type) (Homo sapiens, UniProt O43566) given this compound: COc1ccc2nc(SC(C)C(=O)N(C)C)[nH]c2c1 (stereo not drawn) [Z92077129]
[A] > 1000 µM

Others:
[Q] Kindly state the measured IC50 obtained for CCCCn1c(SC(C(=O)c2ccc(OC)cc2)c2ccc(OC)cc2)nc2cc(S(N)(=O)=O)ccc21 (stereo not drawn) [Z19162246] with human RGS14 RGS-box (wild-type) (Homo sapiens, UniProt O43566).
[A] > 1000 µM

[Q] Return IC50 measured with human RGS14 RGS-box (wild-type) (Homo sapiens, UniProt O43566) given this compound: O=C(O)C[C@@H]1Sc2nnc(-c3ccco3)n2N=C1c1ccccc1 [Z90276389]
[A] 79.4 µM

[Q] Param readout = IC50; param system = human RGS14 RGS-box (wild-type) (Homo sapiens, UniProt O43566); param query = CCn1c(SC(C)C(=O)c2cc(C)ccc2C)nc2cc(S(N)(=O)=O)ccc21 (stereo not drawn) [Z51418807] ; response: value
[A] > 1000 µM

----------
Target: human RGS14 RGS-box (wild-type) (Homo sapiens, UniProt O43566)
Construct: human RGS14 RGS-box (aa 46–195 of UniProt O43566); host or cells: E. coli
Sequence (O43566 46-195): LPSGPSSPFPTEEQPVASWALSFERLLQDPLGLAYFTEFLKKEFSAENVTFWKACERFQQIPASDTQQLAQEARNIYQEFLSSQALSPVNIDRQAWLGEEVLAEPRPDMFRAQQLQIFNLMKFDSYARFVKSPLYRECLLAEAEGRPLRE
Assay: Transcreener GDP RGScreen fluorescence polarization assay of RGS14 RGS-box GAP activity on Gαi1(DM)
Assay type: biochemical
Conditions: wild-type RGS14 RGS-box GAP activity, Gαi1(DM), Transcreener GDP RGScreen; read-out: RGS14 pIC50 (converted)
property: IC50

Below, each entry is followed by its recorded IC50 result.
[Q] Quick check: IC50 of COc1ccc(C(=O)C(C)Sc2nc3ccc(OC)cc3[nH]2)cc1 (centres unmarked) ?
[A] > 1000 µM

[Q] Entry O=C(O)CC1Sc2nnc(C3CC3)n2N=C1c1ccccc1 (centres unmarked) has what IC50?
[A] 302 µM

[Q] Need IC50 of CCn1c(SC(C)C(=O)c2ccc(Cl)cc2)nc2cc(S(N)(=O)=O)ccc21 (centres unmarked) , thanks.
[A] > 1000 µM

Others:
[Q] Can you share its IC50? I mean this molecule: COc1ccc(C(=O)C(Sc2nc3ccccc3n2C)c2ccc(OC)cc2)cc1 (centres unmarked)
[A] > 1000 µM

[Q] So what does the record say about IC50 for COCCn1c(SC(C)C(=O)c2ccc3c(c2)CCN3C(C)=O)nc2ccccc21 (centres unmarked) ?
[A] > 1000 µM

[Q] Returns the measured IC50 for the input molecule. Input: CCc1ccc(C(=O)C(C)Sc2nc3cc(C)ccc3[nH]2)cc1 (centres unmarked)
[A] > 1000 µM

[Q] Fill in: IC50 of COc1ccc(C(=O)C(C)Sc2nc3cc(C)ccc3[nH]2)cc1Cl (centres unmarked) is ___
[A] > 1000 µM

[Q] Any idea what IC50 was measured for COCCn1c(SC(C)C(=O)c2ccc(Br)cc2)nc2ccccc21 (centres unmarked) ?
[A] > 1000 µM

[Q] Which IC50 reading was recorded for the molecule CCCc1ccc(C2=Nn3c(COc4ccccc4F)nnc3SC2)cc1 ?
[A] 16.6 µM

[Q] Entry under review: COc1ccc(OCc2nnc3n2N=C(c2cc4ccccc4o2)CS3)cc1 . Reported IC50?
[A] 3.63 µM

[Q] Name the recorded IC50 for COc1ccc2[nH]c(SC(C(N)=O)c3ccc(F)cc3)nc2c1 (centres unmarked) .
[A] > 1000 µM

[Q] Looking for the measured IC50 of COc1ccc2nc(SC(C)C(=O)c3ccc(C)c(C)c3)[nH]c2c1 (centres unmarked) , can you help?
[A] > 1000 µM

[Q] What IC50 value was documented for this molecule, COc1ccc2nc(SC(C)C(=O)Nc3ccc(F)cc3F)[nH]c2c1 (centres unmarked) ?
[A] > 1000 µM

----------
Target: human RGS14 RGS-box (wild-type) (Homo sapiens, UniProt O43566)
Construct: human RGS14 RGS-box (aa 46–195 of UniProt O43566); host or cells: E. coli
Test: Transcreener GDP RGScreen fluorescence polarization assay of RGS14 RGS-box GAP activity on Gαi1(DM)
Assay type: biochemical
Conditions: values > 1.0 reflect RGS14 selectivity
property: Ratio (RGS14 pIC50 / RGS12 pIC50)

[Q] Which Ratio (RGS14 pIC50 / RGS12 pIC50) is reported with human RGS14 RGS-box (wild-type) (Homo sapiens, UniProt O43566) for this entry: COc1cccc(OCc2nnc3n2N=C(c2ccccc2)[C@H](CC(=O)O)S3)c1 [Z90278437] ?
[A] 1.00

[Q] # get_value(readout= Ratio (RGS14 pIC50 / RGS12 pIC50), system= human RGS14 RGS-box (wild-type) (Homo sapiens, UniProt O43566)) for O=C(O)CC1Sc2nnc(C3CCCO3)n2N=C1c1ccc(Cl)cc1 (centres unmarked) [Z90278051]
[A] 1.07

[Q] Recall the recorded Ratio (RGS14 pIC50 / RGS12 pIC50) for COC(=O)C1Sc2nnc(COc3ccc(F)cc3)n2N=C1c1cc2ccccc2o1 (centres unmarked) [Z8201263931] with human RGS14 RGS-box (wild-type) (Homo sapiens, UniProt O43566) and state it.
[A] 0.91

[Q] # query: Ratio (RGS14 pIC50 / RGS12 pIC50) | item COc1ccc(OCc2nnc3n2N=C(c2ccc(OC)c(OC)c2)CS3)cc1 [Z55660043] | system: human RGS14 RGS-box (wild-type) (Homo sapiens, UniProt O43566)
[A] 0.95

[Q] Param readout= Ratio (RGS14 pIC50 / RGS12 pIC50); system= human RGS14 RGS-box (wild-type) (Homo sapiens, UniProt O43566); entry= COc1ccc(OCc2nnc3n2N=C(c2ccc(C)cc2)[C@@H](C)S3)cc1 [Z55660052] ; returns value.
[A] 0.86

[Q] Report Ratio (RGS14 pIC50 / RGS12 pIC50) for c1ccc2c(c1)OC[C@@H](c1nnc3n1N=C(c1ccc4c(c1)OCCO4)CS3)O2 [Z55660304] tested on human RGS14 RGS-box (wild-type) (Homo sapiens, UniProt O43566).
[A] 0.90

[Q] Record lookup: for human RGS14 RGS-box (wild-type) (Homo sapiens, UniProt O43566), what Ratio (RGS14 pIC50 / RGS12 pIC50) belongs to C1=C(c2cc3ccccc3o2)Nn2c(nnc2C2COc3ccccc3O2)S1 (centres unmarked) [Z55628018] ?
[A] 0.92

[Q] API: value(readout= Ratio (RGS14 pIC50 / RGS12 pIC50), system= human RGS14 RGS-box (wild-type) (Homo sapiens, UniProt O43566), query= CC(C)c1nnc2n1N=C(c1cc3ccccc3o1)CS2 [Z55627782] )
[A] 0.82

[Q] # returns recorded Ratio (RGS14 pIC50 / RGS12 pIC50) (system: human RGS14 RGS-box (wild-type) (Homo sapiens, UniProt O43566)) for COC(=O)C1Sc2nnc(COc3ccc(OC)cc3)n2N=C1c1cccc(N2CCCC2=O)c1 (centres unmarked) [Z7976707565]
[A] 1.14

[Q] Record Cc1ccc(C2=Nn3c(COc4ccc(Cl)cc4)nnc3SC2)c(C)c1 [Z55660524] : what is its Ratio (RGS14 pIC50 / RGS12 pIC50) with human RGS14 RGS-box (wild-type) (Homo sapiens, UniProt O43566)?
[A] 0.82

[Q] API: value(readout=Ratio (RGS14 pIC50 / RGS12 pIC50), system=human RGS14 RGS-box (wild-type) (Homo sapiens, UniProt O43566)) for record O=C(O)C[C@@H]1Sc2nnc(-c3ccco3)n2N=C1c1ccc(F)cc1 [Z90276391]
[A] 0.96
